Values from ChEMBL document CHEMBL3797117

- Test system: Brain
- experimental-details: Reduction of MDA level in Wistar rat brain at 100 uM after 30 mins in presence of ascorbic acid by UV-vis spectrophotmetry relative to control
- Format: functional
- condition-description: 0.5 h
Given measured inhibition at 100 µM, output 1.0 if it is greater than or equal to 30% and 0.0 if not.

# count of solved cases: 3
Cc1ccc2c(c1)S(=O)(=O)N(Cc1ccc(O)cc1)CN2CC(=O)O | 0.0
Cc1ccc2c(c1)S(=O)(=O)N(Cc1cc(O)ccc1F)CN2CC(=O)O | 0.0
O=C(O)CN1CN(Cc2ccccc2)S(=O)(=O)c2cc(O)ccc21 | 1.0

Assess whether reported inhibition at 100 µM for COc1ccc(CN2CN(CC(=O)O)c3ccc(OC)cc3S2(=O)=O)cc1 sits at 30% or higher. 1.0

Next compound: COc1ccc(F)c(CN2CN(CC(=O)O)c3ccc(Br)cc3S2(=O)=O)c1 0.0

Next compound: CC(/C=C1\SC(=S)N(CC(=O)O)C1=O)=C\c1ccccc1 0.0

Next compound: O=C(O)CN1CN(Cc2ccc(O)cc2)S(=O)(=O)c2cc(O)ccc21 1.0

Next compound: COc1ccc(CN2CN(CC(=O)O)c3ccc(Cl)cc3S2(=O)=O)cc1 0.0

* * *

- experimental-details: Antioxidant activity assessed as DPPH free radical scavenging activity at 100 uM after 40 mins by UV-Vis spectrophotometry
- Format: physicochemical
readout: inhibition (INH) (%)
Just the number in %, nothing appended.

Some solved cases for reference:
COc1ccc(CN2CN(CC(=O)O)c3ccc(C)cc3S2(=O)=O)cc1 | 3.1
COc1ccc(CN2CN(CC(=O)O)c3ccc(OC)cc3S2(=O)=O)cc1 | 40.6
COc1ccc(CN2CN(CC(=O)O)c3ccc(Br)cc3S2(=O)=O)cc1 | 6.2
COc1ccc2c(c1)S(=O)(=O)N(Cc1ccccc1)CN2CC(=O)O | 53.1
Cc1ccc2c(c1)S(=O)(=O)N(Cc1ccc(O)cc1)CN2CC(=O)O | 5.2
Cc1c(C)c2c(c(C)c1O)CCC(C)(C(=O)O)O2 (stereo unspecified) | 97
COc1ccc(F)c(CN2CN(CC(=O)O)c3ccc(C)cc3S2(=O)=O)c1 | 18.9
Cc1ccc2c(c1)S(=O)(=O)N(Cc1cc(O)ccc1F)CN2CC(=O)O | 32.3
COc1ccc(F)c(CN2CN(CC(=O)O)c3ccc(Br)cc3S2(=O)=O)c1 | 44.3
COc1ccc(CN2CN(CC(=O)O)c3ccc(Cl)cc3S2(=O)=O)cc1 | 5.9

Turning now to a further compound:
# query: inhibition (INH) of entry CC(/C=C1\SC(=S)N(CC(=O)O)C1=O)=C\c1ccccc1 0

* * *

- experimental-details: Antioxidant activity assessed as DPPH free radical scavenging activity after 30 mins under sunlight by UV-Vis spectrophotometry
- Type: physicochemical
readout: EC50 (µM)
Just the number in µM, nothing appended.

# query: EC50 of entry O=C(O)CN1CN(Cc2ccc(O)cc2)S(=O)(=O)c2cc(O)ccc21 7.6

* * *

Reported inhibition at 100 µM values follow for various compounds
- System: Brain
- experimental-details: Reduction of MDA level in Wistar rat brain at 100 uM after 30 mins in presence of ascorbic acid by UV-vis spectrophotmetry relative to control
- Type: functional
- condition-description: 0.5 h
The reply should read as a number followed by its unit.

Some solved cases for reference:
COc1ccc2c(c1)S(=O)(=O)N(Cc1ccccc1)CN2CC(=O)O | 42.3%
COc1ccc(CN2CN(CC(=O)O)c3ccc(C)cc3S2(=O)=O)cc1 | 8.4%
COc1ccc(CN2CN(CC(=O)O)c3ccc(Br)cc3S2(=O)=O)cc1 | 2.6%
Cc1c(C)c2c(c(C)c1O)CCC(C)(C(=O)O)O2 (stereo not given) | 100%

# query: inhibition at 100 µM of entry COc1ccc(F)c(CN2CN(CC(=O)O)c3ccc(C)cc3S2(=O)=O)c1 4.47%
